Origin of the recorded values: patent US20220332795A1

Molecular target: human serum albumin (human) (UniProt P02768)
Sequence (P02768 25-609 limits assumed): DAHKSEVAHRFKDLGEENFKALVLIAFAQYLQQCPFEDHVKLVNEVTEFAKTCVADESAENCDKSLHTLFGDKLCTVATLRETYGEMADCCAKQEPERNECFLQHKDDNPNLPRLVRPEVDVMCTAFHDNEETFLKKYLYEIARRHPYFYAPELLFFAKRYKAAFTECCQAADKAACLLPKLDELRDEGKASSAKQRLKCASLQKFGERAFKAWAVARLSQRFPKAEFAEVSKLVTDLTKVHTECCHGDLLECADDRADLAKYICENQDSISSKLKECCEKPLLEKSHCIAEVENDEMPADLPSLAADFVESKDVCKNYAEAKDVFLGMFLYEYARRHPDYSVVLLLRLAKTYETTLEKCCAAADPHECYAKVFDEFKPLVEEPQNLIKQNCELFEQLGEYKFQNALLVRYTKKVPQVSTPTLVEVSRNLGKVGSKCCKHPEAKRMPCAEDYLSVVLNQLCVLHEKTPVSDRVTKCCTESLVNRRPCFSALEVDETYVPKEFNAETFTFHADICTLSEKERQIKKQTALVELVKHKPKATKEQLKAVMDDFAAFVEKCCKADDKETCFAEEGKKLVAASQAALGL
Assay: primary solution ELISA screen
QUANTITY KIND: RLU (RLU)

# BINDER, RLU [RLU]
data = [
    ("SEQ ID NO 59 (designed binder, not shown: small tags and cut ends) MLPAPKNLVVSRVTEDSARLSWTAPDAAFDSFVYNEVHWIGEAIVLTVPGSERSYDLTGLKPGTEYFVGIYGVKGGHWSKPLSAIFTT", 16400),
    ("SEQ ID NO 25 (designed binder, not shown: small tags and cut ends) MLPAPKNLVVSRVTEDSARLSWTAPDAAFDSFPIWYLEKSYQGEAIVLTVPGSERSYDLTGLKPGTEYVVPIIGVKGGRDSCPLSAIFTT", 3850),
    ("SEQ ID NO 63 (designed binder, not shown: small tags and cut ends) MLPAPKNLVVSRVTEDSARLSWTAPDAAFDSFCISYYERMGRGEAIVLTVPGSERSYDLTGLKPGTEYMVYIFGVKGGLNSLPLSAIFTT", 5700),
    ("SEQ ID NO 97 (designed binder, not shown: small tags and cut ends) MLPAPKNLVVSRVTEDSARLSWTAPDAAFDSFHIWYEEETTIGEAIYLHVPGSERSYDLTGLKPGTEYEVHITGVKGGPYSRPLFANFTT", 6500),
    ("SEQ ID NO 3 (designed binder, not shown: small tags and cut ends) MLPAPKNLVVSRVTEDSARLSWTAPDAAFDSFNIEYAETRWYGEAIVLTVPGSERSYDLTGLKPGTEYVVPIDGVKGGIASKPLSAIFTT", 9950),
]

(A) SEQ ID NO 42 (designed binder, not shown: small tags and cut ends) MLPAPKNLVVSRVTEDSARLSWTAPDAAFDSFLIPYAETSPSGEAIVLTVPGSERSYDLTGLKPGTEYSVLIHGVKGGDYSEPLSAIFTT
(B) SEQ ID NO 13 (designed binder, not shown: small tags and cut ends) MLPAPKNLVVSRVTEDSARLSWTAPDAAFDSFLIAYPEDGFRGEAIVLTVPGSERSYDLTGLKPGTEYPVPILGVKGGGGSGPLSAIFTT
Could you determine which record has the numerically smaller RLU? Candidates: A and B Provide the label of your selected option as the answer. A

(a) SEQ ID NO 38 (designed binder, not shown: small tags and cut ends) MLPAPKNLVVSRVTEDSARLSWTAPDAAFDSFPILYLEHTVRSEAIVLTVPGSERSYDLTDLKPGTEYCVPIDGVKGGLRSRPLSAIFTT
(b) SEQ ID NO 15 (designed binder, not shown: small tags and cut ends) MLPAPKNLVVSRVTEDSARLSWQGVARAFDSFLITYREQIFAGEVIVLTVPGSERSYDLTGLKPGTECPVWIQGVKGGSPSAPLSAEFTT
Sort a and b by RLU descending and give the first. Provide the label of your selected option as the answer. b
